Can you tell me pIC50 for the items I'm about to list?
Experiment summary: Inhibition of growth in epothilone A resistant 1A9-A8 T-beta-274I mutant cell line after 72 hrs by SRB assay
Type: functional, cell-based
Experimental parameters: Homo sapiens, 1A9, 72 h
// field semantics: pIC50 = negative decimal log of concentration (mol/L)

Input line: Return the recorded pIC50 value; entry: C=CCCC(=O)O[C@@]12CO[C@@H]1C[C@H](O)[C@@]1(C)C(=O)[C@H](OC(C)=O)C3=C(C)[C@@H](OC(=O)[C@H](O)[C@@H](NC(=O)c4ccccc4)c4cccc(C=C)c4)C[C@@](O)([C@@H](OC(=O)c4ccccc4)[C@H]21)C3(C)C
Output line: 6.86

Input line: Return the recorded pIC50 value; entry: CC(=O)O[C@H]1C(=O)[C@@]2(C)[C@@H]3[C@H](OC(=O)c4ccccc4)[C@]4(O)C[C@H](OC(=O)[C@H](O)[C@@H](NC(=O)c5ccccc5)c5ccccc5OCCCC(=O)O[C@]35CO[C@@H]5C[C@@H]2O)C(C)=C1C4(C)C
Output line: 7.18

Input line: Return the recorded pIC50 value; entry: CC(=O)O[C@H]1C(=O)[C@@]2(C)[C@@H]3[C@H](OC(=O)c4ccccc4)[C@]4(O)C[C@H](OC(=O)[C@H](O)[C@@H](NC(=O)c5ccccc5)c5ccccc5OCC/C=C/C(=O)O[C@]35CO[C@@H]5C[C@@H]2O)C(C)=C1C4(C)C
Output line: 7.33

Input line: Return the recorded pIC50 value; entry: CC(=O)O[C@H]1C(=O)[C@@]2(C)[C@@H]3[C@H](OC(=O)c4ccccc4)[C@]4(O)C[C@H](OC(=O)[C@H](O)[C@@H](NC(=O)c5ccccc5)c5ccccc5CCCC(=O)O[C@]35CO[C@@H]5C[C@@H]2O)C(C)=C1C4(C)C
Output line: 9.36

Input line: Return the recorded pIC50 value; entry: C=CCCC(=O)O[C@@]12CO[C@@H]1C[C@H](O)[C@@]1(C)C(=O)[C@H](OC(C)=O)C3=C(C)[C@@H](OC(=O)[C@H](O)[C@@H](NC(=O)c4ccccc4)c4ccccc4OCC=C)C[C@@](O)([C@@H](OC(=O)c4ccccc4)[C@H]21)C3(C)C
Output line: 6.83

Input line: Return the recorded pIC50 value; entry: CC(=O)O[C@H]1C(=O)[C@@]2(C)[C@H]([C@H](OC(=O)c3ccccc3)[C@]3(O)C[C@H](OC(=O)[C@H](O)[C@@H](NC(=O)c4ccccc4)c4ccccc4)C(C)=C1C3(C)C)[C@]1(OC(C)=O)CO[C@@H]1C[C@@H]2O
Output line: 7.67

Input line: Return the recorded pIC50 value; entry: CC(=O)O[C@H]1C(=O)[C@]2(C)C(O)C[C@H]3OC[C@]34OC(=O)/C=C\Cc3ccccc3[C@H](NC(=O)c3ccccc3)[C@@H](O)C(=O)O[C@H]3C[C@@](O)([C@@H](OC(=O)c5ccccc5)[C@H]42)C(C)(C)C1=C3C (stereo not given in full)
Output line: 9.57

Input line: Return the recorded pIC50 value; entry: CC(=O)O[C@H]1C(=O)[C@@]2(C)[C@@H]3[C@H](OC(=O)c4ccccc4)[C@]4(O)C[C@H](OC(=O)[C@H](O)[C@@H](NC(=O)c5ccccc5)c5ccccc5OC/C=C\C(=O)O[C@]35CO[C@@H]5C[C@@H]2O)C(C)=C1C4(C)C
Output line: 7.58
